test_target: DNA topoisomerase 2-alpha (Homo sapiens)
test_name: Inhibition of human DNA topoisomerase 2 mediated decatenation at 10 uM using kDNA as substrate after 30 mins by ethidium bromide staining-based agarose gel electrophoresis method
Active and inactive are the calls of the source. The calls are words filed in the database; no cut-off is given here.
value_kind: inhibition

Check out these entries, answers already filled in.
* C=C1CC[C@@H]2[C@H]3O[C@H](CCCCCCC)Cc4cc(O)c(C(=O)O)c(c43)O[C@@]2(C)CC[C@@H]2[C@@H]1CC2(C)C | Active
* CCCCCCC[C@@H]1Cc2cc(O)c(C(=O)O)c3c2[C@H](O1)[C@H]1[C@@H](OC)/C=C(/CO)[C@H]2CC(C)(C)[C@]2(O)[C@@H](O)C[C@]1(C)O3 | inactive
* CO[C@@H]1/C=C(\C)C[C@H](OC(C)=O)[C@]2(O)[C@H](CC2(C)C)/C(COC(C)=O)=C\1 | inactive
* CCCCCCC[C@@H]1Cc2cc(O)c(C(=O)O)c(O)c2[C@H](O)O1 | Active
* CCCCCCC[C@@H]1Cc2cc(O)c(C(=O)O)c3c2[C@H](O1)[C@H]1[C@@H](OC)/C=C(/COC(C)=O)[C@H]2CC(C)(C)[C@]2(O)[C@@H](O)C[C@]1(C)O3 | inactive
* C[C@H]([C@H](C)N1CC(=O)NC(=O)C1)N1CC(=O)NC(=O)C1 | Active

Field request: inhibition | item: CCCCCCC[C@@H]1Cc2cc(O)c(C(=O)O)c3c2[C@H](O1)[C@H]1[C@@H](OC)/C=C(/COC(C)=O)[C@H]2CC(C)(C)[C@]2(O)[C@@H](OC(C)=O)C[C@]1(C)O3
inactive

Would you kindly repeat that for CO[C@@H]1/C=C(\C)C[C@H](O)[C@]2(O)[C@H](CC2(C)C)/C(CO)=C\1 ?
inactive
